Values from ChEMBL document CHEMBL2331230

Please go through the items and note down their IC50.
Method Notes: Antioxidant activity assessed as nitric oxide scavenging activity after 2.5 hrs by Griess assay
Assay type: functional
Answer in µg/mL, number only, no unit symbol.

For `COc1cc(OC)c(C(=O)/C=C/c2cc(OC)c(OC)cc2OC)c(OC)c1` the compound record lists IC50 as 1.977

Reported IC50 ( `COc1ccc(C(=O)/C=C/c2cc(OC)c(OC)cc2OC)cc1` ) = 2.07

So, `COc1cc(OC)c(OC)cc1/C=C/C(=O)c1ccc(F)cc1` ? Its IC50 was 1.963

The compound listed as COc1cc(OC)c(C2CC(=O)c3cc(O)ccc3O2)cc1OC (stereo not given) has a reported IC50 of 2.434

For this compound ( `COc1cc(OC)c(OC)cc1/C=C/C(=O)c1cc(OC(C)=O)ccc1OC(C)=O` ), measured IC50 is 2.37

// IC50 lookup, compound = `COc1cc(OC)c(-c2oc3ccc(Cl)cc3c(=O)c2O)cc1OC` , result: 2.106

Lab book: IC50 of `COc1cc(OC)c(-c2cc(=O)c3cc(Cl)ccc3o2)cc1OC` noted as 2.145

IC50 reading for `COc1cc(OC)c(OC)cc1/C=C/C(=O)c1cccc(C(F)(F)F)c1` : 2.085

`COc1cc(OC)c(OC)cc1/C=C/C(=O)c1ccc(O)cc1O` has a reported IC50 of 2.763

Given item `COc1cc(OC)c(OC)cc1/C=C/C(=O)c1ccc(-n2ccnc2)cc1` , the value recorded as its IC50 is 1.972
